Entry source: paper PMC12430544

# Method summary: Metal chelation by UV–vis spectrometry, stoichiometry and affinity estimate (Zn)
# Format: physicochemical
# Condition context: CH3OH/H2O (v/v = 9/1), 2L+M⇔ML2
// reported LogK Zn (affinity of ligand for Zn^II, ML2) per item
Number, no unit, nothing else.

These recorded examples may help you get a feel for the data.
Problem: So what's the measured LogK Zn (affinity of ligand for Zn^II, ML2) for this one? Oc1ccc(F)c2ccc(CN3CCN(CCNc4c5c(nc6ccccc46)CCCC5)CC3)nc12 [Compound 16b]
Solution: 9.63

Problem: So what's the measured LogK Zn (affinity of ligand for Zn^II, ML2) for this one? O=C(CN1CCN(Cc2ccc(O)c3ncccc23)CC1)Nc1c2c(nc3ccccc13)CCCC2 [Compound 17a]
Solution: 9.67

Problem: So what's the measured LogK Zn (affinity of ligand for Zn^II, ML2) for this one? O=C(CN1CCN(Cc2ccc3cccc(O)c3n2)CC1)Nc1c2c(nc3ccccc13)CCCC2 [Compound 15a]
Solution: 9.91

More entries:
Problem: So what's the measured LogK Zn (affinity of ligand for Zn^II, ML2) for this one? Oc1cccc2ccc(CN3CCN(CCCCCNc4c5c(nc6ccccc46)CCCC5)CC3)nc12 [Compound 16h]
Solution: 9.63
